Origin of the recorded values: ChEMBL document CHEMBL4359926

- Tested On: Peroxisome proliferator-activated receptor gamma (Homo sapiens, UniProt P37231)
- Sequence (P37231 whole entry, the tested form may be a part): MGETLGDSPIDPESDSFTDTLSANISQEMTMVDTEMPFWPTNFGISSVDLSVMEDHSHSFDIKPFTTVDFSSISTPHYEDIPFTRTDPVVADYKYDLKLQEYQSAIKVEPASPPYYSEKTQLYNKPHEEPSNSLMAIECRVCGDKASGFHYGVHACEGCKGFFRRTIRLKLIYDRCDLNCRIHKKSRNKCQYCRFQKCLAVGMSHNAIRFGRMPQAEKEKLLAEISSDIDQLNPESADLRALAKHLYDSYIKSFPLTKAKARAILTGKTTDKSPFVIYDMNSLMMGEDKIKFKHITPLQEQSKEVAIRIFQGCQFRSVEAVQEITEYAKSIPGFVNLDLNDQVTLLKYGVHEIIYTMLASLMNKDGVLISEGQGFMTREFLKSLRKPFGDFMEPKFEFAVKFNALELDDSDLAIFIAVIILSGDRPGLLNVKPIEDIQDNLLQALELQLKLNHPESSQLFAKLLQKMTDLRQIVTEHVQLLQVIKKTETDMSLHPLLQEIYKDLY
- Measurement Protocol: Displacement of fluormone PPAR green tracer ligand from recombinant GST-tagged PPARgamma ligand binding domain (unknown origin) incubated for 4 hrs by competitive fluorescence polarization binding assay
compounds and their reported pKi
Note on pKi: it is the negative log10 of concentration, concentration in mol/L.

# Sample Smiles, Experimental Readout, Experimental Value
data = [
    ("Cc1c(C)n(Cc2ccc(-c3ccccc3C(=O)O)cc2)c2ccc(C(=O)NCc3cccc(OCC(=O)O)c3)cc12", "pKi", 7.28),
    ("Cc1c(C)n(Cc2cccc(C(F)(F)F)c2)c2ccc(C(=O)N[C@@H](Cc3ccc(O)cc3)C(=O)O)cc12", "pKi", 6.57),
    ("Cc1c(C)n(Cc2ccc(-c3ccccc3C(=O)O)cc2)c2ccc(C(=O)NCc3cccnc3)cc12", "pKi", 6.36),
]

Report pKi for Cc1c(C)n(Cc2ccc(-c3ccccc3C(=O)O)cc2)c2ccc(C(=O)NCC3CCNCC3)cc12 please.
5.02

Look at this compound and give its reported pKi. Cc1c(C)n(Cc2ccc(-c3ccccc3C(=O)O)cc2)c2ccc(C(=O)NC3CCNCC3)cc12
4.49

Given Cc1c(C)n(Cc2ccc(-c3ccccc3C(=O)O)cc2)c2ccc(C(=O)NCc3ccccn3)cc12 , state its recorded pKi.
7.57

Would you mind telling me what pKi value was observed for COc1ccc(OC)c(CNC(=O)c2ccc3c(c2)c(C)c(C)n3Cc2cccc(C(F)(F)F)c2)c1 ?
7.42

Could you tell me which pKi is on file for COc1cc(CNC(=O)c2ccc3c(c2)c(C)c(C)n3Cc2ccc(-c3ccccc3C(=O)O)cc2)ccc1O ?
7.89
